- System: MCF7
- assay notes: Cytotoxicity against human MCF7 cells assessed as reduction in cell viability after 48 hrs by MTT assay
- Assay type: functional, cell-based
- test parameters: MCF7, 48 h
Measured pIC50, listed per entry for reference.
Expect pIC50 as a plain number equal to -log10 of the molar concentration.

> print(dat)
                                   compound  readout.label  recorded.value
1  CCOC(=O)c1ccc(Nc2nc(C(C)(C)C)c(Cc3ccc4c(c3)OCO4)s2)cc1          pIC50            5.23

Answer with the recorded pIC50 of Cc1ccc(Nc2nc(C(C)(C)C)c(Cc3ccc4c(c3)OCO4)s2)c(C)c1 only.
4.73

Provide only the value of recorded pIC50 for CC(C)(C)c1nc(Nc2ccc(Br)cc2)sc1Cc1ccc2c(c1)OCO2
5.33

Please indicate pIC50 recorded for CC(C)(C)c1nc(Nc2ccccc2Cl)sc1Cc1ccc2c(c1)OCO2
5.05

Entry O=c1[nH]cc(F)c(=O)[nH]1 [FLUOROURACIL] needs its pIC50 filled in; supply it.
4.10

Entry CC(C)(C)c1nc(Nc2ccc([N+](=O)[O-])cc2Cl)sc1Cc1ccc2c(c1)OCO2 needs its pIC50 filled in; supply it.
4.12

Name the recorded pIC50 of the compound listed here: CC(C)(C)c1nc(Nc2cccc(Cl)c2Cl)sc1Cc1ccc2c(c1)OCO2
4.71

Give the measured pIC50 for Cc1cccc(Nc2nc(C(C)(C)C)c(Cc3ccc4c(c3)OCO4)s2)c1
5.31

Return pIC50 (reported value) for this compound: CC(C)(C)c1nc(Nc2ccc(F)c(Cl)c2)sc1Cc1ccc2c(c1)OCO2
5.06

###

- System: HeLa
- assay notes: Cytotoxicity against human HeLa cells assessed as reduction in cell viability after 48 hrs by MTT assay
- Assay type: functional, cell-based
readout label: IC50 (µM)
Answer format: numeric, µM implied, no suffix.

Sample answers from the record:
molecule	test target	IC50 (µM)
CC(C)(C)c1nc(Nc2ccc(F)c(Cl)c2)sc1Cc1ccc2c(c1)OCO2	HeLa	4.6
CC(C)(C)c1nc(Nc2cccc(Cl)c2)sc1Cc1ccc2c(c1)OCO2	HeLa	8.27
CC(C)(C)c1nc(Nc2cc(C(F)(F)F)cc(C(F)(F)F)c2)sc1Cc1ccc2c(c1)OCO2	HeLa	2.07
CC(C)(C)c1nc(Nc2cc(Cl)cc(Cl)c2)sc1Cc1ccc2c(c1)OCO2	HeLa	5.8
CC(C)(C)c1nc(Nc2cccc(Br)c2)sc1Cc1ccc2c(c1)OCO2	HeLa	6.43
CC(C)(C)c1nc(Nc2ccc(C(F)(F)F)cc2)sc1Cc1ccc2c(c1)OCO2	HeLa	10.4

Answer with the recorded IC50 of CC(C)(C)c1nc(Nc2cccc(C(F)(F)F)c2)sc1Cc1ccc2c(c1)OCO2 only.
13

###

- System: MCF7
- assay notes: Cytotoxicity against human MCF7 cells assessed as reduction in cell viability after 48 hrs by MTT assay
- Type: functional, cell-based
- test parameters: MCF7, 48 h
readout label: IC50 (µM)
Form entry: value (µM) — number only.

# count of solved cases: 6
chemical string	endpoint unit	IC50
Cc1ccc(Nc2nc(C(C)(C)C)c(Cc3ccc4c(c3)OCO4)s2)cc1C	µM	20.4
CC(C)(C)c1nc(Nc2ccc(Cl)c(Cl)c2)sc1Cc1ccc2c(c1)OCO2	µM	11.2
CC(C)(C)c1nc(Nc2cccc3ccccc23)sc1Cc1ccc2c(c1)OCO2	µM	22.3
CC(C)(C)c1nc(Nc2ccc(C(F)(F)F)cc2)sc1Cc1ccc2c(c1)OCO2	µM	3.54
CC(=O)O[C@H]1C(=O)[C@@]2(C)[C@H]([C@H](OC(=O)c3ccccc3)[C@]3(O)C[C@H](OC(=O)[C@H](O)[C@@H](NC(=O)c4ccccc4)c4ccccc4)C(C)=C1C3(C)C)[C@]1(OC(C)=O)CO[C@@H]1C[C@@H]2O	µM	14
CC(C)(C)c1nc(Nc2cccc(Cl)c2)sc1Cc1ccc2c(c1)OCO2	µM	3

Provide IC50, tested on MCF7, for CC(C)(C)c1nc(Nc2ccc(F)cc2)sc1Cc1ccc2c(c1)OCO2 .
15

Look up MCF7 data: IC50 of CC(C)(C)c1nc(Nc2ccc([N+](=O)[O-])cc2)sc1Cc1ccc2c(c1)OCO2 , then report it.
2.55

###

- Tested on: HeLa
- assay notes: Cytotoxicity against human HeLa cells assessed as reduction in cell viability after 48 hrs by MTT assay
- Format: functional, cell-based
Item-by-item account of pIC50
// scale note: pIC50 = -log10(conc_M); give the bare number

Record excerpt, results attached:
> print(dat)
                            chemical.string  readout.label  recorded.value
1  CC(C)(C)c1nc(Nc2ccccc2)sc1Cc1ccc2c(c1)OCO2          pIC50            4.92
2  Cc1ccc2cccc(Nc3nc(C(C)(C)C)c(Cc4ccc5c(c4)OCO5)s3)c2n1          pIC50            4.19
3  CC(C)(C)c1nc(Nc2cccc(Cl)c2Cl)sc1Cc1ccc2c(c1)OCO2          pIC50            4.46
4  CC(C)(C)c1nc(Nc2ccccc2Br)sc1Cc1ccc2c(c1)OCO2          pIC50            4.28
5  CC(C)(C)c1nc(Nc2c(Br)cc(OC(F)(F)F)cc2Br)sc1Cc1ccc2c(c1)OCO2          pIC50            4.27
6  CC(C)(C)c1nc(Nc2ccccc2F)sc1Cc1ccc2c(c1)OCO2          pIC50            4.74

Let's switch to this molecule now.
Name the recorded pIC50 of the molecule listed here: Cc1ccc(Nc2nc(C(C)(C)C)c(Cc3ccc4c(c3)OCO4)s2)c(C)c1
4.72

###

- Tested on: MCF7
- assay notes: Cytotoxicity against human MCF7 cells assessed as reduction in cell viability after 48 hrs by MTT assay
- Type: functional, cell-based
- test parameters: MCF7, 48 h
# label = yes if IC50 < 9 µM else no

The examples below pair each entry with its known result.
> print(dat)
                            chemical.string  label
1  Cc1cccc(C)c1Nc1nc(C(C)(C)C)c(Cc2ccc3c(c2)OCO3)s1     no
2  CC(C)(C)c1nc(Nc2cc(Cl)cc(Cl)c2)sc1Cc1ccc2c(c1)OCO2     no
3  CC(C)(C)c1nc(Nc2c(Br)cc(OC(F)(F)F)cc2Br)sc1Cc1ccc2c(c1)OCO2     no
4  CC(C)(C)c1nc(Nc2cccc(C(F)(F)F)c2)sc1Cc1ccc2c(c1)OCO2    yes

Please let me know if CC(C)(C)c1nc(Nc2ccccc2F)sc1Cc1ccc2c(c1)OCO2 shows IC50 below 9 µM.
yes

Could you please tell me whether IC50 recorded for Cc1ccccc1Nc1nc(C(C)(C)C)c(Cc2ccc3c(c2)OCO3)s1 is less than 9 µM?
no

Given CC(C)(C)c1nc(Nc2ccc(Cl)cc2)sc1Cc1ccc2c(c1)OCO2 , is recorded IC50 strictly lower than 9 µM?
yes

Lab log: compare recorded IC50 with 9 µM; is it strictly lower for CC(C)(C)c1nc(Nc2cccc(Br)c2)sc1Cc1ccc2c(c1)OCO2 ?
yes

Does CC(C)(C)c1nc(Nc2ccccn2)sc1Cc1ccc2c(c1)OCO2 have IC50 strictly under 9 µM?
yes

I wonder whether COc1ccc(Nc2nc(C(C)(C)C)c(Cc3ccc4c(c3)OCO4)s2)cc1 has IC50 below 9 µM. Can you tell?
no

###

This listing pairs compounds with measured IC50.
- Tested on: HeLa
- assay notes: Cytotoxicity against human HeLa cells assessed as reduction in cell viability after 48 hrs by MTT assay
- Type: functional, cell-based
# output: number + unit

compound	IC50
CC(C)(C)c1nc(Nc2ccc([N+](=O)[O-])cc2F)sc1Cc1ccc2c(c1)OCO2	19.3 µM
Cc1cccc(Nc2nc(C(C)(C)C)c(Cc3ccc4c(c3)OCO4)s2)c1	18.8 µM
CC(=O)O[C@H]1C(=O)[C@@]2(C)[C@H]([C@H](OC(=O)c3ccccc3)[C@]3(O)C[C@H](OC(=O)[C@H](O)[C@@H](NC(=O)c4ccccc4)c4ccccc4)C(C)=C1C3(C)C)[C@]1(OC(C)=O)CO[C@@H]1C[C@@H]2O [PACLITAXEL]	19.3 µM
CC(C)(C)c1nc(Nc2ccccn2)sc1Cc1ccc2c(c1)OCO2	4.79 µM
O=c1[nH]cc(F)c(=O)[nH]1 [FLUOROURACIL]	56.5 µM

Provide only the value of recorded IC50 for CC(C)(C)c1nc(Nc2cccc3ccccc23)sc1Cc1ccc2c(c1)OCO2
14.1 µM

Answer with reported IC50 of CCOC(=O)c1ccc(Nc2nc(C(C)(C)C)c(Cc3ccc4c(c3)OCO4)s2)cc1
47.5 µM

Respond only with IC50 recorded for Cc1ccccc1Nc1nc(C(C)(C)C)c(Cc2ccc3c(c2)OCO3)s1
24.8 µM

Dear colleague, please send me the reported IC50 for CC(C)(C)c1nc(Nc2ccc(Cl)c(Cl)c2)sc1Cc1ccc2c(c1)OCO2 when you can.
7.83 µM

Please give the documented IC50 of CC(C)(C)c1nc(Nc2ccc(F)cc2)sc1Cc1ccc2c(c1)OCO2
25.3 µM
